Listed here: items and their measured Emax.
- SYSTEM NAME: Mu-type opioid receptor (Homo sapiens, UniProt P35372)
- Sequence (P35372 whole entry): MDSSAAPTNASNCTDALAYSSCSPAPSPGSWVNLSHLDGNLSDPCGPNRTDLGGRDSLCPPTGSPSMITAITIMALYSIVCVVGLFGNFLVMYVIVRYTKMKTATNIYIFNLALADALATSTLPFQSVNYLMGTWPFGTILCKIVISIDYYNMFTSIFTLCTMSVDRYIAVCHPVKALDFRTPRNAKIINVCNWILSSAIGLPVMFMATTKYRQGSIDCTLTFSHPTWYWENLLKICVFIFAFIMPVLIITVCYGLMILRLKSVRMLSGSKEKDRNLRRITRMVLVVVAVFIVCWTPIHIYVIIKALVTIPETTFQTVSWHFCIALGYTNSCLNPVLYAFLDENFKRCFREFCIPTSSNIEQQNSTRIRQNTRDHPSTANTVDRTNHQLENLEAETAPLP
- ASSAY METHOD TEXT: Agonist activity at human MOR expressed in HEK-293T cells assessed as inhibition of forskolin-stimulated cAMP accumulation incubated for 30 mins by Glo-sensor cAMP assay relative to DAMGO
- Type: functional, cell-based
- MEASUREMENT SETUP: HEK293T, filed as agonist
Number in %, nothing else.

STRUCTURE NOTATION: CC[C@@H]1CN2CC[C@@]3(O)C(=Nc4c(C)ccc(OC)c43)[C@@H]2C[C@@H]1/C(=C\OC)C(=O)OC
SYSTEM NAME: Mu-type opioid receptor (Homo sapiens, UniProt P35372)
Emax, %: 69.3
//
STRUCTURE NOTATION: CC[C@@H]1CN2CCc3c([nH]c4c(C)ccc(OC)c34)[C@@H]2C[C@@H]1/C(=C\OC)C(=O)OC
SYSTEM NAME: Mu-type opioid receptor (Homo sapiens, UniProt P35372)
Emax, %: 83.9
//
STRUCTURE NOTATION: CC[C@@H]1CN2CCc3c([nH]c4ccc(-c5ccoc5)c(OC)c34)[C@@H]2C[C@@H]1/C(=C\OC)C(=O)OC
SYSTEM NAME: Mu-type opioid receptor (Homo sapiens, UniProt P35372)
Emax, %: 90.8

Field Emax (Mu-type opioid receptor (Homo sapiens, UniProt P35372)), entry CC[C@@H]1CN2CC[C@@]3(O)C(=Nc4ccc(-c5ccccc5)c(OC)c43)[C@@H]2C[C@@H]1/C(=C\OC)C(=O)OC : 88.7
